# Experimental Details: Binding affinity to Poly(dAdT).Poly(dAdT) (unknown origin)
Assignment: determine reported Ka for the given molecules.
One number for each entry, in ×10⁶ /M.

> print(dat)
                              line.notation  recorded.measurement
1  CN(C)CCN1C(=O)c2cccc3c2c(cc2c4ccccc4oc32)C1=O                     5

Attention now turns to another entry.
Problem: # Ka lookup, item CN(C)CCN1C(=O)c2cccc3c2c(cc2c4ccccc4sc32)C1=O
Solution: 8

---

# Test system: P388
# Experimental Details: Cytotoxicity against mouse P388 cells by tetrazolium-formazan assay
# Format: functional, cell-based
Assignment: determine reported pIC50 for the given compounds.
Give bare numbers, as −log10 of the molar value.

Some solved entries appear below for comparison.
> print(dat)
                              line.notation  recorded.measurement
1  CN(C)CCCn1c(=O)c2ccc3oc4ccccc4c4ccc(c1=O)c2c34                  5.46
2  CCCCn1c(=O)c2ccc3sc4ccccc4c4ccc(c1=O)c2c34                  5.92
3  CN(C)CCN1C(=O)c2cccc3c2c(cc2nc(-c4ccccc4)sc23)C1=O                  6.18
4  CN(C)CCn1c(=O)c2ccc3oc4ccccc4c4ccc(c1=O)c2c34                  5.95

Give me pIC50 for each of these compounds, listed below.
1. CN(C)CCCN1C(=O)c2cccc3c2c(cc2c4ccccc4oc32)C1=O
2. COc1ccc(-c2nc3cc4c5c(cccc5c3s2)C(=O)N(CCN(C)C)C4=O)cc1
3. Cc1ccc(-c2nc3cc4c5c(cccc5c3s2)C(=O)N(CCN(C)C)C4=O)cc1
4. CN(C)CCN1C(=O)c2cccc3c2c(cc2nc(-c4ccc(Cl)cc4)oc23)C1=O
5. CN(C)CCN1C(=O)c2cccc3c2c(cc2c4ccccc4oc32)C1=O
6. O=c1c2ccc3oc4ccccc4c4ccc(c(=O)n1CCN1CCNCC1)c2c34

Solution:
6.77
6.37
6.21
4.70
6.19
5.34
